- System: 5-LOX catalyzed LTB4 formation
- Measurement protocol: In vitro assay for leukotriene
- Assay type: cell-based
- Condition summary: Homo sapiens, Leukocyte, 10 min, read-out: IC50 5-LOX mediated LTB4 formation
Quantity measured: IC50 (µM)
Respond with the bare value in µM.

Just so you know, measured IC50 for CC(c1cc2ccccc2s1)N(O)C(N)=O (stereo not shown) came out at 5
